From: paper PMC7076650

assay: Pharmacokinetics after intravenous administration; format: in vivo, SD rats; details: male, Sprague-Dawley (SD), rat, plasma, rats, 2 mg/kg MTO, n = 6, read-out: AUC0–24 of MTO
Measured Endpoint: AUC(0-t) (ng·h/mL)

compound="Cl.Cl.O=C1c2c(O)ccc(O)c2C(=O)c2c(NCCNCCO)ccc(NCCNCCO)c21 [MTO]" obs_value=1180

* * *

Test: Pharmacokinetics after intravenous administration
Format: in vivo, SD rats
Conditions: male, Sprague-Dawley (SD), rat, plasma, rats, 4 mg/kg βE, n = 6, read-out: T1/2 of βE (converted)
Experimental: All the preparations were administered intravenously into the tail vein at a dose of 2 mg/kg (n = 6) for MTO and 4 mg/kg (n = 6) for βE. The blood samples were taken with a heparinized syringe at 0.5, 1, 2, 4, 6, 8, 12, and 24 h.
Measured Endpoint: half-life (h)

compound="C=CC1(C)CCC(C(=C)C)CC1C(=C)C (stereo not shown) [βE]" unit_tag=h obs_value=2.9

* * *

experiment: Pharmacokinetics after intravenous administration; assay type: in vivo, SD rats; settings: male, Sprague-Dawley (SD), rat, plasma, rats, 4 mg/kg βE, n = 6, read-out: AUC0–24 of βE
Measured Endpoint: AUC(0-t) (ng·h/mL)

molecule="C=CC1(C)CCC(C(=C)C)CC1C(=C)C (stereo not shown)" measured_endpoint=AUC(0-t) obs_value=4860

* * *

assay: Pharmacokinetics after intravenous administration; type: in vivo, SD rats; conditions: male, Sprague-Dawley (SD), rat, plasma, rats, 2 mg/kg MTO, n = 6, read-out: Cmax of MTO
Measured Endpoint: Cmax (ng/mL)

chemical_string=Cl.Cl.O=C1c2c(O)ccc(O)c2C(=O)c2c(NCCNCCO)ccc(NCCNCCO)c21 obs_value=3450

* * *

assay: Pharmacokinetics after intravenous administration; format: in vivo, SD rats; settings: male, Sprague-Dawley (SD), rat, plasma, rats, 2 mg/kg MTO, n = 6, read-out: T1/2 of MTO (converted)
Measured Endpoint: half-life (h)

compound="Cl.Cl.O=C1c2c(O)ccc(O)c2C(=O)c2c(NCCNCCO)ccc(NCCNCCO)c21 [MTO]" measured_endpoint=half-life obs_value=1.53
